- test method notes: Microsomal stability in vitro assay
- Assay type: in vitro ADME
- settings: pooled rat liver microsomes, 4 μM compound, NADPH
result type: Microsomal Stability, Percent Remaining @ 1 hour (%)

- chemical structure: "O=C(O)c1cc(-c2cccc(-c3nc(-c4ccccc4)cc(C(F)(F)F)n3)c2)ccc1F"
  value: 100

A. N#Cc1cc(C2=Nc3ccc(C(F)(F)F)cc3NC(=O)C2)ccn1
B. O=C(O)c1ccc(F)c(-c2cccc(-c3nc(-c4ccoc4)cc(C(F)(F)F)n3)c2)c1
Q: Among A and B , whose measured Microsomal Stability, Percent Remaining @ 1 hour is the smaller figure? Lab log: write the label of the selected item as the result.
A: B
(B: 66%, A: 97%)

P. Cc1cc2c(cc1C(F)(F)F)NC(=O)CC(c1cccc(S(=O)(=O)c3ncccn3)c1)=N2
Q. O=C(O)c1cc(-c2cccc(-c3csc(-c4ccccc4)n3)c2)ccc1F
Q: Of the two listed items, P and Q , which carries the larger Microsomal Stability, Percent Remaining @ 1 hour figure? Lab log: write the label of the selected item as the result.
A: P
(P: 68%, Q: 3%)
